Source listed as ChEMBL document CHEMBL1130992.

System: Nucleic Acid
Assay: Compound was evaluated for DNA-binding affinity using poly[d(AT)]2
Type: nucleic-acid assay
quantity-kind: C50

structure-smiles-string: Cl.Cl.Cl.NCCNCc1cc(-c2ccccc2)nc2ccccc12
C50: 33 µM
--
structure-smiles-string: Cl.Cl.Cl.NCCNCc1cccc2ccc(-c3ccccc3)nc12
C50: 5.2 µM

Exam item: # get_value(readout='C50', item= Cl.Cl.Cl.NCCNCc1ccc2ccc(-c3ccccc3)nc2c1 )
Marked response: 11 µM

Exam item: Same thing, different molecule: Cl.Cl.Cl.NCCNCc1ccc(-c2ccc3ccccc3n2)cc1
Marked response: 7 µM

====

Test system: Nucleic Acid
Assay: Compound was evaluated for DNA-binding affinity using poly[d(GC)]2
Assay type: nucleic-acid assay
Listed here are compounds together with their documented C50.
State just the number; it will be interpreted in µM.

The following compounds have reported results that may help.
structure-smiles-string: Cl.Cl.Cl.NCCNCc1ccc2ccc(-c3ccccc3)nc2c1
assayed-target: Nucleic Acid
quantity-kind: C50
readout-units: µM
measurement: 16

structure-smiles-string: Cl.Cl.Cl.NCCNCc1ccc(-c2ccc3ccccc3n2)cc1
assayed-target: Nucleic Acid
quantity-kind: C50
readout-units: µM
measurement: 11

Exam item: State its C50 on Nucleic Acid: Cl.Cl.Cl.NCCNCc1cccc2ccc(-c3ccccc3)nc12
Marked response: 5.6

Exam item: Same thing, different compound: Cl.Cl.Cl.NCCNCc1cc(-c2ccccc2)nc2ccccc12
Marked response: 48
